# study target: NAD-dependent protein deacylase sirtuin-5, mitochondrial (Homo sapiens) (UniProt Q9NXA8)
# Sequence (Q9NXA8 whole entry, looked up): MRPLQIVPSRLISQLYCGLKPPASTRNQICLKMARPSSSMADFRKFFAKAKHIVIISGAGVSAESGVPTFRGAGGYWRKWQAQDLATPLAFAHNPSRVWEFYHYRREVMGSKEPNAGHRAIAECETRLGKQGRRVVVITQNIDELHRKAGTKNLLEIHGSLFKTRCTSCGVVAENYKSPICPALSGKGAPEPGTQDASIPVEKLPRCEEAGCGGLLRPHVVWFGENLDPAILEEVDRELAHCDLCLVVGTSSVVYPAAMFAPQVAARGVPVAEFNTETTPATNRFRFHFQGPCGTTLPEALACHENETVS
# experimental protocol: blockers of sirtuin-5 deacylase activity – biochemical, fluorescence imaging, single point, set 5, primary screen (AID 652115)
# measurement conditions: Purified SirT5, succinyl-peptide AMC, trypsin-coupled fluorescence; at 15 µM
Out of some 330,000 compounds screened, about 3,800 (1.2%) were called active. Cut-off read from the data, not from the text of the source: active = inhibition above about 15%; inconclusive = no clear call, values can overlap the other calls; inactive = below that. The sample as a whole holds a higher share of actives than the screen did.
Your answer must be one of the following: active, inactive

For this molecule, state the assay outcome: COc1ccccc1CN(C)C(=O)c1cc2ccccc2o1 inactive

For this molecule, state the assay outcome: COc1ccc(OC)c(CN2CCN(C(=O)CNC(=O)c3cc(C)cc(C)c3)CC2)c1 inactive

For this molecule, state the assay outcome: O=C(CCN1C(=O)C2C3C=CC(C3)C2C1=O)Oc1ccc2ccccc2c1 (stereo not drawn) active

For this molecule, state the assay outcome: O=C(C[C@@H]1CC[C@H](NC(=O)C2CCOCC2)[C@@H](CO)O1)Nc1ccccc1 inactive

For this molecule, state the assay outcome: COCC(=O)N1CC(=O)N2[C@H](C1)[C@H](c1ccc(C#CC3CCCCC3)cc1)[C@@H]2CO inactive

For this molecule, state the assay outcome: CCCNC(=O)Nc1ccc2c(c1)C(=O)N(C)C[C@H](OC)[C@H](C)CN(Cc1cccnc1)[C@@H](C)CO2 inactive

For this molecule, state the assay outcome: CC(=O)N1[C@@H](CO)[C@@H](c2ccc(C3=CCCC3)cc2)C12CN(C(=O)C1CC1)C2 inactive

For this molecule, state the assay outcome: O=C(NCCc1ccc(F)cc1)c1ccc2nccnc2c1 active

For this molecule, state the assay outcome: O=C(NCCc1ccc(F)cc1)c1n[nH]c2ccccc12 inactive

For this molecule, state the assay outcome: Cc1ccc(C(=O)COC(=O)CCN2C(=O)C3C4CCC(C4)C3C2=O)cc1C (stereo not drawn) inactive

For this molecule, state the assay outcome: O=C(O)CCCN1C(=O)C2C3c4ccccc4C(c4ccccc43)[C@@H]2C1=O (stereo partly drawn) inactive

For this molecule, state the assay outcome: CN1c2ccc(Br)cc2[C@H]2[C@H](CCN2S(=O)(=O)c2ccc(F)cc2)[C@@H]1CO inactive

For this molecule, state the assay outcome: CN(C)CCCCCN(C)Cc1cc2ccccc2o1 active

###

# study target: NAD-dependent protein deacylase sirtuin-5, mitochondrial (Homo sapiens)
# experimental protocol: blockers of sirtuin-5 deacylase activity – biochemical, fluorescence imaging, single point, set 5, primary screen (AID 652115)
# measurement conditions: Purified SirT5, succinyl-peptide AMC, trypsin-coupled fluorescence; at 15 µM; stronger effect = higher value
The campaign covered roughly 330,000 compounds. About 3,800 (1.2%) were called active. Only a selection was taken, and actives are over-represented in it overall.
Please go through the items and note down their inhibition.
Report the figure in % without appending any unit label.

Check the records and state inhibition for CCC(=O)N1CC(=O)N2[C@H](CO)[C@@H](c3ccc(-c4ccc(C(=O)N(C)C)cc4)cc3)[C@H]2C1 -3.02

Check the records and state inhibition for O=C(COC(=O)c1ccc(O)cc1O)c1ccc2c(c1)OCCO2 19.1

Check the records and state inhibition for C[C@H](NC(=O)C[C@@H]1CC[C@H](NC(=O)CN2CCOCC2)[C@H](CO)O1)c1ccccc1 -3.17

Check the records and state inhibition for COc1ccc(C(=O)OCC(=O)c2ccc(C)c(S(=O)(=O)N3CCOCC3)c2)cc1OC 25.2

Check the records and state inhibition for C[C@@H]1CN([C@@H](C)CO)S(=O)(=O)c2ccc(-c3cccc(F)c3)cc2O[C@@H]1CN(C)S(=O)(=O)c1ccccc1 12

Check the records and state inhibition for C[C@@H]1CN([C@@H](C)CO)S(=O)(=O)c2ccc(C#CCN(C)C)cc2O[C@@H]1CN(C)S(=O)(=O)c1cccc(F)c1 2.43

Check the records and state inhibition for CN1CCN(C(=O)C[C@H]2CC[C@H]3[C@@H](COC[C@H](O)CN3C(=O)c3ccc(F)cc3)O2)CC1 1.19

Check the records and state inhibition for COc1ccc(CNC(=O)COC(=O)c2ccc(C)c(S(=O)(=O)N3CCOCC3)c2)cc1OC -1.07

Check the records and state inhibition for CCc1nnc(NS(=O)(=O)c2ccc(NC(=O)c3cccc(OC(F)(F)C(F)F)c3)cc2)s1 -3.94

Check the records and state inhibition for O=C(COC(=O)c1ccc(O)cc1O)NC(=O)c1ccccc1 0.616

###

# study target: NAD-dependent protein deacylase sirtuin-5, mitochondrial (Homo sapiens) (UniProt Q9NXA8)
# experimental protocol: blockers of sirtuin-5 deacylase activity – biochemical, fluorescence imaging, single point, set 5, primary screen (AID 652115)
# measurement conditions: Purified SirT5, succinyl-peptide AMC, trypsin-coupled fluorescence; at 15 µM; stronger effect = higher value
Hit rate of the full screen: of about 330,000 compounds, about 3,800 (1.2%) were called active. The sample holds actives, similar compounds and a random draw of the others, so the mix is not that of the screen.
property label: inhibition (%)
Report the figure in % without appending any unit label.

Check the records and state inhibition for CCCNC(=O)C[C@H]1C[C@@H]2c3cc(NC(=O)NC4CCCC4)ccc3O[C@@H]2[C@@H](CO)O1 -4.3

Check the records and state inhibition for COC(=O)C[C@@H]1C[C@@H]2c3cc(NC(=O)NC4CCCC4)ccc3O[C@@H]2[C@@H](CO)O1 -3

Check the records and state inhibition for C[C@@H]1CCCCO[C@@H](CN(C)S(C)(=O)=O)[C@H](C)CN([C@@H](C)CO)C(=O)c2cc(NS(=O)(=O)c3cccs3)ccc2O1 -3.17

Check the records and state inhibition for CCCN(C)C[C@H]1Oc2cc(-c3ccc(C)cc3)ccc2S(=O)(=O)N([C@H](C)CO)C[C@H]1C 1.13

Check the records and state inhibition for O=C([C@H]1[C@H](CO)[C@H]2Cn3c(ccc(C4=CCCCC4)c3=O)[C@@H]1N2)N1CCCCC1 -11.2

Check the records and state inhibition for CCS(=O)(=O)N1CC(=O)N2[C@H](CO)[C@@H](c3ccc(C#CC4CCCC4)cc3)[C@@H]2C1 -0.752

###

# study target: NAD-dependent protein deacylase sirtuin-5, mitochondrial (Homo sapiens) (UniProt Q9NXA8)
# experimental protocol: blockers of sirtuin-5 deacylase activity – biochemical, fluorescence imaging, single point, set 5, primary screen (AID 652115)
# measurement conditions: Purified SirT5, succinyl-peptide AMC, trypsin-coupled fluorescence; at 15 µM
Hit rate of the full screen: of about 330,000 compounds, about 3,800 (1.2%) were called active. Rule as the data show it: active = inhibition above about 15%; inconclusive = no clear call, values can overlap the other calls; inactive = below that. Shown is part of a subset that was picked to be rich in actives.
Your answer must be one of the following: yes (1) (active), no (0) (inactive)

For this compound, state the assay outcome: COc1ccccc1CN1CCNC(=O)C1CC(=O)N(C)CC1CCOCC1 (stereo not drawn) no (0)

For this compound, state the assay outcome: C[C@H]1CN([C@@H](C)CO)C(=O)c2cccc(NS(=O)(=O)c3cccs3)c2O[C@H]1CN(C)Cc1ccc(C(=O)Nc2ccccc2N)cc1 no (0)

For this compound, state the assay outcome: Cc1ccc(SCCC(=O)Nc2cc(C)on2)cc1 no (0)

For this compound, state the assay outcome: CN1CCN(C(=O)C[C@@H]2C=C[C@@H](NS(=O)(=O)c3cccc(F)c3)[C@@H](CO)O2)CC1 no (0)

For this compound, state the assay outcome: CC(C)NC(=O)N1CC(=O)N2[C@@H](CO)[C@H](c3ccc(C#CCN(C)C)cc3)[C@@H]2C1 no (0)

For this compound, state the assay outcome: CCN(CCn1cccn1)C(=O)CC1C(=O)NCCN1Cc1cccc(OC)c1OC (stereo not drawn) yes (1)

For this compound, state the assay outcome: Cc1ccccc1NC(=O)CSC(=O)c1ccccc1 no (0)

For this compound, state the assay outcome: COc1ccc2c3c(n(C)c2c1)[C@H](CO)N(S(=O)(=O)c1ccc(C)cc1)CC31CN(C(=O)c2ccccn2)C1 no (0)

For this compound, state the assay outcome: COCC#Cc1ccc([C@H]2[C@@H](CO)N3C(=O)CN(C(=O)C4CCCC4)C[C@@H]23)cc1 no (0)

For this compound, state the assay outcome: CCCC#Cc1ccc([C@H]2[C@@H](CO)N3CCCCN(S(=O)(=O)CC)C[C@H]23)cc1 no (0)

For this compound, state the assay outcome: C[C@@H]1CN([C@H](C)CO)C(=O)c2cc(NS(=O)(=O)c3cccs3)ccc2O[C@@H](C)CCCCO[C@H]1CN(C)Cc1ccc(C(F)(F)F)cc1 no (0)

For this compound, state the assay outcome: C[C@@H](O)C#Cc1cnc2c(c1)C(=O)N([C@@H](C)CO)C[C@H](C)[C@H](CN(C)Cc1cncnc1)O2 no (0)

For this compound, state the assay outcome: CCCC#Cc1ccc([C@H]2[C@H](CO)N3CCCCN(S(=O)(=O)CC)C[C@@H]23)cc1 no (0)

For this compound, state the assay outcome: CCCC#Cc1ccc([C@H]2[C@@H](CO)N3CCCCN(S(=O)(=O)Cc4ccccc4)C[C@H]23)cc1 yes (1)

For this compound, state the assay outcome: CO[C@@H]1CN(C)C(=O)c2cc(NS(=O)(=O)CC(F)(F)F)ccc2OC[C@H](C)N(Cc2ccccn2)C[C@@H]1C no (0)

For this compound, state the assay outcome: C[C@@H]1CN([C@@H](C)CO)C(=O)c2cc(-c3cncnc3)cnc2O[C@H]1CN(C)Cc1cncnc1 no (0)

For this compound, state the assay outcome: CCNC(=O)[C@H]1[C@H](CO)[C@H]2Cn3c(ccc(-c4cccc(OC)c4)c3=O)[C@H]2N1Cc1nccs1 no (0)

For this compound, state the assay outcome: COc1ccc2c3c(n(C)c2c1)[C@@H](CO)N(CC1CC1)CC31CN(C(=O)c2cccc(F)c2)C1 no (0)

Where these numbers come from: PubChem BioAssay AID652115
